# System: HaCat
# TEST_PROTOCOL: Cytotoxic Profiling of Annotated Libraries Using Quantitative High-Throughput Screening (AID 1296008); further: on the % scale 0 is the no-effect control and ±100 the full control effect; nearly all actives have a fitted effect of over 60% in size
# EXPERIMENTAL_CONTEXT: Five cell lines viability, CellTiter-Glo ATP luminescence, 48-72 h; active compounds read low
Results filed as inconclusive are left out.
PARAMETER_MEASURED: max response (%)
# unit: % | format: bare number

Worked set:
1. O=C(Nc1ccc(S(=O)(=O)Nc2nccs2)cc1)C(c1ccccc1)c1ccccc1: -1.59
2. C=C[C@@]12COC(=O)C(=C)C1[C@@H](O)[C@H](C(=C)C(=O)OC)[C@@H](OC(=O)C(=C)CO)C2 (stereo partly drawn): -6.28
3. COC(=O)CC(O)C1OC(c2ccccc2)C(O)C1O (stereo not drawn): -28.3

# max response of C[C@@H]1N[C@H]2N(C1=O)c1ccccc1[C@@]2(O)C[C@@H]1C(=O)N[C@@H](C)c2nc3ccccc3c(=O)n21 = 1.5

# max response of CC1CC(C(O)C(C)(C)O)OC2CC3(C)C4(C)CCC5C(C)(C)C(=O)CCC5(C)C4CCC3(O)C12O (stereo not drawn) = 3.58

# max response of C[C@@H]1CC[C@]2(C(=O)O)CC[C@]3(C)C(=CCC4[C@@]5(C)CC[C@H](O)C(C)(C)C5C(O)C[C@]43C)[C@@H]2[C@]1(C)O (stereo partly drawn) = -8.55

# max response of CC(=O)OC1C(O)CC2(C)C(CCC(C)C23Cc2c(O)cc(CO)c(C=O)c2O3)C1(C)C (stereo not drawn) = -3.73

# max response of C=C(C(=O)O)C1CC2=C(C)CCCC2(C)C[C@@H]1O (stereo partly drawn) = 0.301

* * *

# Test system: SKOV3
# TEST_PROTOCOL: Primary qHTS to identify gynecologic anti-cancer compounds using libraries of approved drugs and bioactive compounds (AID 1345084); further: nearly all actives have a fitted effect of over 55% in size; on activity change, negative = cytotoxicity: on the % scale 0 is the no-effect control and ±100 the full control effect
# EXPERIMENTAL_CONTEXT: Gynecologic cancer cell panel viability, ATPlite luminescence, 48 h; series mostly up to 57.5 µM
Results filed as inconclusive are left out. The source made the active and inactive calls. Calls come from the whole dose curve; as a rule, active = well fitted cell-killing curve with a large enough effect; inconclusive = small, poorly fitted or top-dose-only effect, or effect the other way; inactive = flat fitted curve, though single readings scatter.
PARAMETER_MEASURED: activity change, negative = cytotoxicity

# activity change, negative = cytotoxicity of C1CCC[C@H]2CCCN3CC[C@@H](CCCCCC[C@@H]4CCCN5CC[C@@H](CC1)O[C@@H]45)O[C@@H]23 = 0.0209% [at 0.155 µM] (inactive)

* * *

# Tested on: Nanoluciferase (engineered Oplophorus gracilirostris luciferase)
# TEST_PROTOCOL: Primary Nanoluciferase (NLuc) qHTS assay for identification of artifact compounds. (AID 1845222);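 further: NLuc secreted into diluted conditioned medium of S16 cells; 0% = DMSO and -100% = no enzyme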
# EXPERIMENTAL_CONTEXT: NLuc-conditioned medium, Nano-Glo luminescence, 5 min; series mostly up to 54.1 µM
# Excerpt: PI: Alexander Tropsha Ph.D. UNC Eshelman School of Pharmacy University of North Carolina, Chapel Hill, North Carolina Hits from high-throughput screening (HTS) of chemical libraries are often false positives due to their interference with the assay detection technology. […] Using these curated datasets, we developed and validated several Quantitative Structure-Interference Relationship (QSIR) models to predict nuisance behavior. […] 6; Detection; Luminescence, ViewLux microplate reader. […]
The source made the active and inactive calls. The call rests on the fitted dose curve; in most records, active means well fitted inhibition curve with a large enough effect; inconclusive means small, poorly fitted or top-dose-only effect; inactive means flat fitted curve, though single readings scatter.
PARAMETER_MEASURED: activity, negative = inhibition

Worked set:
1. C/C=C(\C)C(=O)O[C@@H]1CC2[C@@H](CC=C3C[C@@H](O[C@H]4C[C@H](OC)[C@H](O[C@H]5C[C@H](OC)[C@H](O[C@@H]6O[C@H](C)[C@@H](O[C@H]7C[C@H](OC)[C@H](O[C@@H]8O[C@H](CO)[C@@H](O)[C@H](O)[C@H]8O)[C@@H](C)O7)[C@H](OC)[C@H]6O)[C@@H](C)O5)[C@@H](C)O4)CC[C@@]32C)[C@@]2(O)CC[C@H](C(C)=O)[C@@]12C (stereo not given in full): 2.98% [at 11.6 µM] (inactive)
2. COCCOc1ccc(N2CCN(CCn3ncc4c3nc(N)n3nc(-c5ccco5)nc43)CC2)cc1: inactive
3. CC1(C)CC[C@]2(C(=O)OC3OC(CO)C(O)C(O)C3O)CC[C@]3(C)C(=CCC4[C@@]5(C)CC[C@H](OC6OC(C(=O)O)C(O)C(OC7OC(CO)C(O)C(O)C7O)C6O)C(C)(C)C5CC[C@]43C)C2C1 (stereo not given in full): 2.64% [at 11.6 µM] (inactive)
4. C[C@@H]1O[C@@H](O[C@H]2[C@@H]3C=CO[C@@H](O[C@@H]4O[C@H](CO)[C@@H](O)[C@H](O)[C@H]4O)[C@@H]3[C@@]3(CO)O[C@@H]23)[C@H](OC(=O)/C=C/c2ccccc2)[C@H](O)[C@H]1O: inactive

Now, please, on to the next compound.
# activity, negative = inhibition of CCNC(=O)Nc1ccc(-c2nc3c(c(N4CCOC[C@@H]4C)n2)CCN(c2ncccn2)C3)cc1 = inactive

* * *

# Tested on: SKOV3
# TEST_PROTOCOL: Primary qHTS to identify gynecologic anti-cancer compounds using libraries of approved drugs and bioactive compounds (AID 1345084); further: nearly all actives have a fitted effect of over 55% in size
# EXPERIMENTAL_CONTEXT: Gynecologic cancer cell panel viability, ATPlite luminescence, 48 h; series mostly up to 57.5 µM
Results filed as inconclusive are left out. Active and inactive are the calls of the source. Calls come from the whole dose curve; as a rule, active = well fitted cell-killing curve with a large enough effect; inconclusive = small, poorly fitted or top-dose-only effect, or effect the other way; inactive = flat fitted curve, though single readings scatter.
Your answer must be one of the following: yes = active, no = inactive

Exercise: For this compound, state the assay outcome: O=C(NCc1cccc(O)c1)Nc1nc(-c2ccncc2)cs1
Solution: no

Exercise: For this compound, state the assay outcome: C[C@@H]1COCCN1c1cc(C2(S(C)(=O)=O)CC2)nc(-c2cccc3[nH]ccc23)n1
Solution: yes

Exercise: For this compound, state the assay outcome: Cc1onc(C(=O)N2CCN(C(c3ccc(Cl)cc3)c3ccc(Cl)cc3)CC2)c1[N+](=O)[O-]
Solution: yes

Exercise: For this compound, state the assay outcome: CC1=C(C(=O)O)/C(=C/CO[C@@H]2O[C@H](COC(=O)/C=C/c3ccc(O)cc3)[C@@H](O)[C@H](O)[C@H]2O)C(O)C1 (some centres undefined)
Solution: no

* * *

# Test system: Tov112D
# TEST_PROTOCOL: Primary qHTS to identify gynecologic anti-cancer compounds using libraries of approved drugs and bioactive compounds (AID 1345084); further: nearly all actives have a fitted effect of over 55% in size
# EXPERIMENTAL_CONTEXT: Gynecologic cancer cell panel viability, ATPlite luminescence, 48 h; series mostly up to 57.5 µM
Records with an inconclusive call do not appear. Calls of active or inactive are those of the source. The call rests on the fitted dose curve; in most records, active means well fitted cell-killing curve with a large enough effect; inconclusive means small, poorly fitted or top-dose-only effect, or effect the other way; inactive means flat fitted curve, though single readings scatter.
Your answer must be one of the following: true (active), false (inactive)

1) CC1(CCOC2OC(CO)C(O)C(O)C2O)CCC23OC2(C1)C(O)CC1C(C)(C(=O)O)CCCC13C (centres undefined): false
2) C[C@@H]1C(=O)O[C@H]2[C@H](O)C34[C@H]5C[C@@H](C(C)(C)C)C36[C@@H](OC(=O)[C@@H]6O)O[C@@]4(C(=O)O5)[C@@]12O (some centres undefined): false
3) C=C1C(=O)O[C@@H]2C/C(C)=C\C(=O)/C=C(\C)[C@@H](OC(=O)/C(C)=C\C)[C@H](O)[C@@H]12: true

# next compound below
Exercise: For this compound, state the assay outcome: C[C@H]1Oc2cc(cnc2N)-c2c(nn(C)c2C#N)CN(C)C(=O)c2ccc(F)cc21
Solution: false

* * *

# Test system: HeLa
# TEST_PROTOCOL: Primary qHTS to identify gynecologic anti-cancer compounds using libraries of approved drugs and bioactive compounds (AID 1345084); further: nearly all actives have a fitted effect of over 55% in size; on activity change, negative = cytotoxicity: on the % scale 0 is the no-effect control and ±100 the full control effect
# EXPERIMENTAL_CONTEXT: Gynecologic cancer cell panel viability, ATPlite luminescence, 48 h; series mostly up to 57.5 µM
# Description: National Center for Advancing Translational Sciences [NCATS] Assay Overview: Chemotherapeutic drug responses vary from cancer to cancer and from patient to patient. […] ATPlite is a luminescence based assay reliant on the conversion of a luciferase substrate to light in the presence of ATP. As a cytotoxic compound will suppress growth and decrease the number of cells, the concentration of ATP will decrease, and less light signal will be detected in the well. […]
Records with an inconclusive call do not appear. Active and inactive are the calls of the source. Calls follow the shape of the dose curve; as a rule, active = well fitted cell-killing curve with a large enough effect; inconclusive = small, poorly fitted or top-dose-only effect, or effect the other way; inactive = flat fitted curve, though single readings scatter.
# activity change, negative = cytotoxicity per record follows

Worked set:
1. CC(C)=CCC/C(C)=C/CC/C(C)=C/COC1OC(COC2OCC(OC3OCC(O)C(O)C3O)C(O)C2O)C(O)C(OC2OC(C)C(OC3OC(C)C(OC4OCC(OC5OC(C)C(O)C(O)C5O)C(O)C4O)C(O)C3O)C(O)C2O)C1O (stereo unspecified): -2.03% [at 6.55 µM] (inactive)
2. CC(C)=CCC[C@](C)(O[C@@H]1O[C@H](CO)[C@@H](O)[C@H](O)[C@H]1O)[C@H]1CC[C@]2(C)[C@@H]1[C@H](O)CC1[C@@]3(C)CC[C@H](O)C(C)(C)C3[C@@H](O[C@@H]3O[C@H](CO)[C@@H](O)[C@H](O)[C@H]3O[C@@H]3OC[C@@H](O)[C@H](O)[C@H]3O)C[C@]12C (stereo partly specified): 9.51% [at 11.6 µM] (inactive)
3. CC(=O)O[C@H]1CC(C)(C)CC2[C@@]13[C@H](O)C[C@]1(C)[C@@]2(CCC2[C@@]4(C)CC[C@H](O[C@@H]5OC[C@H](O[C@@H]6O[C@H](CO)[C@@H](O)[C@H](O)[C@H]6O[C@@H]6OC[C@@H](O)[C@H](O)[C@H]6O)[C@H](O)[C@H]5O[C@@H]5O[C@H](CO)[C@@H](O)[C@H](O)[C@H]5O)C(C)(C)C4CC[C@]21C)O[C@@H]3O (stereo partly specified): -7.2% [at 11.6 µM] (inactive)
4. C[C@@H]1O[C@@H](O[C@H]2[C@H](OC(=O)[C@]34CCC(C)(C)C[C@H]3C3=CCC5[C@@]6(C)C[C@H](O)[C@H](O[C@@H]7O[C@H](CO)[C@@H](O[C@H]8OC[C@](O)(CO)[C@H]8O)[C@H](O)[C@H]7O)[C@@](C)(CO)C6[C@H](O)C[C@@]5(C)[C@]3(C)C[C@H]4O)OC[C@H](O)[C@@H]2O)[C@H](O)[C@H](O)[C@H]1O[C@@H]1OC[C@@H](O)[C@H](O[C@@H]2OC[C@](O)(CO)[C@H]2O)[C@H]1O (stereo partly specified): -3.15% [at 6.55 µM] (inactive)
5. C[C@@H]1O[C@@H](O[C@H]2[C@H](O)[C@@H](O)[C@H](O[C@H]3[C@H](O[C@H]4CC[C@@]5(C)C(=CC[C@@H]6C5CC[C@]5(C)[C@@H]7[C@H](C[C@@H]65)O[C@]5(CC[C@@](C)(CO[C@@H]6O[C@H](CO)[C@@H](O)[C@H](O)[C@H]6O)O5)[C@H]7C)C4)O[C@H](CO)[C@@H](O)[C@@H]3O)O[C@@H]2CO)[C@H](O)[C@H](O)[C@H]1O (stereo partly specified): 6.34% [at 11.6 µM] (inactive)

# activity change, negative = cytotoxicity of COC1CC(O[C@H]2CC[C@@]3(C)C(=CC[C@]4(O)C3[C@H](OC(C)=O)[C@@H](OC(=O)c3ccccc3)[C@]3(C)[C@@H](C(C)=O)CC[C@@]34O)C2)OC(C)C1OC1CC(OC)C(OC2CC(OC)C(OC3OC(C)C(OC4OC(CO)C(O)C(O)C4O)C(OC)C3O)C(C)O2)C(C)O1 (stereo partly specified) = -1.12% [at 6.55 µM] (inactive)
